Please provide measured Emax (%), Human GLP-1R activation, in vitro cell assay for the entries that follow.
target: Human GLP-1R (human) (UniProt P43220)
Sequence (P43220 24-463): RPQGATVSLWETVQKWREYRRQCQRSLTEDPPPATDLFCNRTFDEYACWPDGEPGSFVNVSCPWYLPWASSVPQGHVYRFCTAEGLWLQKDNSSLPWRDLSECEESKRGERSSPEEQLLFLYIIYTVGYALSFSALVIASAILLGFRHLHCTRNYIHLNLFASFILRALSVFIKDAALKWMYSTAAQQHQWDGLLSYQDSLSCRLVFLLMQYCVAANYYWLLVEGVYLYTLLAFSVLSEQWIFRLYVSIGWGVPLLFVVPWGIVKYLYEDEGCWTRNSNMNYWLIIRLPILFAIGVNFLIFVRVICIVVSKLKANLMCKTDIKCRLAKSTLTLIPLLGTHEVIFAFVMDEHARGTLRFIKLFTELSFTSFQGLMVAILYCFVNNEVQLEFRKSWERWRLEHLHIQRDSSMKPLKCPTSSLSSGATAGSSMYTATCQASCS
Ends that are not written are not given here. fatty chain = not defined here
Provide a numeric answer, followed by its unit.

# BINDER, ENDPOINT_VALUE
records = [
    ("FFYSSPSAYLKTGGPSSGAPPPS [PEP15]", "78%"),
    ("FFYSSPSAYLK(fatty chain)TGGPSSGAPPPS (reading uncertain; also: fatty chain not given here) [PEP19]", "89%"),
    ("FFYSSPSAKLETGGPSSGAPPPS [PEP13]", "96%"),
    ("FFYSSPSAYK(fatty chain)ETGGPSSGAPPPS (reading uncertain; also: fatty chain not given here) [PEP18]", "78%"),
    ("FFYSSPSAYLEKGGPSSGAPPPS [PEP16]", "92%"),
]

Go through the items and report each one's Emax (%), Human GLP-1R activation, in vitro cell assay.
1. FFYSSPSAYKETGGPSSGAPPPS [PEP14]
2. FFYSSPSAYLEK(fatty chain)GGPSSGAPPPS (reading uncertain; also: fatty chain not given here) [PEP20]
3. FFYSSPSAK(fatty chain)LETGGPSSGAPPPS (reading uncertain; also: fatty chain not given here) [PEP17]

1. 105%
2. 98%
3. 79%
